All values here come from patent US8574585B2.

Entries and their measured CYTOTOXIC ACTIVITY ×20 Pep(−) follow.
system: peptide-pulsed TISI cells (HLA-A24/24); experiment: CTL lines induced with peptide-pulsed DCs, four-hour 51Cr release assay; type: cell-based, human; settings: CTL line induced with the peptide; ×20; targets without peptide
Where no end group is shown, it is not given here.
Endpoint: CYTOTOXIC ACTIVITY ×20 Pep(−) (%)

>>> observed_value("DFLTLEHLI [SEQ ID NO:12]")
4
>>> observed_value("KFGNLSTYL [SEQ ID NO:4]")
4
>>> observed_value("WYKLGPQPL [SEQ ID NO:1]")
4
